tgt: Excitatory amino acid transporter 3 (Homo sapiens)
Sequence (P43005 whole entry): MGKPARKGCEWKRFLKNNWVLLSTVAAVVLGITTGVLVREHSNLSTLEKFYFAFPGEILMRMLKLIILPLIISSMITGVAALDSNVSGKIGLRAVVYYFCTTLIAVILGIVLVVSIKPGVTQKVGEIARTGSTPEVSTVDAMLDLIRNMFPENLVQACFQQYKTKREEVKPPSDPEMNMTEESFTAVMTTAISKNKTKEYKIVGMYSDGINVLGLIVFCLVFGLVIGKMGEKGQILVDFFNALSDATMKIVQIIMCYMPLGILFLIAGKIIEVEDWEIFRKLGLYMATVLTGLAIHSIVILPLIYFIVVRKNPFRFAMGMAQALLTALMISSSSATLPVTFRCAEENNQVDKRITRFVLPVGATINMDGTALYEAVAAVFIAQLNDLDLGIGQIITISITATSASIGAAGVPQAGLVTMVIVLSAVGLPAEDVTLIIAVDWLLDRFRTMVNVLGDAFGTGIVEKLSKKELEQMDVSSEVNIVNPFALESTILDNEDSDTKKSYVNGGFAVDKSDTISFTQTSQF
assayExplanation: Inhibition of human EAAT3 expressed in HEK293 cells assessed as inhibition of 3[H]-D-Aspartate uptake after 6 mins by scintillation counting method
pIC50: −log10 of the molar value.
Consider the following compounds and their measured pIC50 readings.

compound	measurementKind	recordedMeasurement
C[C@H](c1ccccc1)N1CC(=O)C2=C(C1)OC(N)=C(C#N)[C@@H]2c1ccccc1	pIC50	< 3.52
C[C@H](c1ccccc1)N1CC(=O)C2=C(C1)OC(N)=C(C#N)[C@H]2c1ccccc1	pIC50	< 3.52
C[C@@H](c1ccccc1)N1CC(=O)C2=C(C1)OC(N)=C(C#N)[C@@H]2c1ccccc1	pIC50	< 3.52
N#CC1=C(N)OC2=C(C(=O)CN(c3ccccc3)C2)C1c1ccccc1 (configuration not stated)	pIC50	< 4.00
C[C@@H](c1ccccc1)N1CC(=O)C2=C(C1)OC(N)=C(C#N)[C@H]2c1ccccc1	pIC50	< 3.52

// field: pIC50; key: N#CC1=C(N)OC2=C(C(=O)CN(C(=O)c3ccccc3)C2)C1c1ccccc1 (configuration not stated) ; value = < 4.00

// field: pIC50; key: N#CC1=C(N)OC2=C(C(=O)CN(Cc3ccccc3)C2)C1c1ccccc1 (configuration not stated) ; value = < 3.52
